Conditions: Ebola virus entry assay, blue channel fluorescence
Calls of active or inactive are those of the source. The call rests on the fitted dose curve.
The reply should be one of these categories: t = active, f = inactive

Dear all, I need the recorded test outcome for CCC(C)n1ncn(-c2ccc(N3CCN(c4ccc(OC[C@H]5CO[C@](Cn6cncn6)(c6ccc(Cl)cc6Cl)O5)cc4)CC3)cc2)c1=O (stereo not given in full) , thank you.
t

Write down the call the test reported for this compound. Item: CN(C)CCc1c[nH]c2ccc(CS(=O)(=O)N3CCCC3)cc12
f

What was the test verdict on CC(C)(O)c1ccccc1CC[C@@H](SCC1(CC(=O)O)CC1)c1cccc(/C=C/c2ccc3ccc(Cl)cc3n2)c1 ?
f

Test call for this compound, please: CCCN(CCC)S(=O)(=O)c1ccc(C(=O)O)cc1
f

Could you kindly confirm the outcome this assay logged for CN1CCC[C@@H]1Cc1c[nH]c2ccc(CCS(=O)(=O)c3ccccc3)cc12 ?
f

Returns: the outcome recorded for CN/C(=C\[N+](=O)[O-])NCCSCc1ccc(CN(C)C)o1 in this assay.
f

Give the logged outcome of this assay for the following compound: CSc1ccc2c(c1)N(CCC1CCCCN1C)c1ccccc1S2 (stereo not given)
t

Can you look up the reported call for CCN(CC)CCNC(=O)c1c(C)[nH]c(/C=C2\C(=O)Nc3ccc(F)cc32)c1C for me?
t

Outcome logged for CNCC[C@H](Oc1cccc2ccccc12)c1cccs1 in this assay:
t

Hey, what did the test say about Cc1[nH]c(=O)c(C#N)cc1-c1ccncc1 ?
f

Check the results log: what was the call for O[C@@H]1CO[C@H]2[C@@H]1OC[C@@H]2O ?
f

Fill in: this test's call for Cc1cccc(Nc2ccccc2C(=O)O)c1C is ___
f

For O[C@@H](c1cc(C(F)(F)F)nc2c(C(F)(F)F)cccc12)[C@H]1CCCCN1 , what call appears in the results of this test?
t

For this compound, state the assay outcome: O=C(OC1C[C@H]2CC[C@@H](C1)[N+]21CCCC1)C(O)(c1ccccc1)c1ccccc1 (stereo not given in full)
f

Please state the recorded outcome for this compound: OCCN1CCN(CCCN2c3ccccc3Sc3ccc(Cl)cc32)CC1
t

Lab log entry: COc1ccccc1Oc1c(NS(=O)(=O)c2ccc(C(C)(C)C)cc2)nc(-c2ncccn2)nc1OCCO — outcome as called in the assay?
f
